FYI, the data here is from paper PMC7901699.

# ASSAYED_TARGET: human recombinant COX-2 (Homo sapiens)
# Construct: purchased Cayman Chemicals Inc. 560131
# Sequence (P35354 18-604): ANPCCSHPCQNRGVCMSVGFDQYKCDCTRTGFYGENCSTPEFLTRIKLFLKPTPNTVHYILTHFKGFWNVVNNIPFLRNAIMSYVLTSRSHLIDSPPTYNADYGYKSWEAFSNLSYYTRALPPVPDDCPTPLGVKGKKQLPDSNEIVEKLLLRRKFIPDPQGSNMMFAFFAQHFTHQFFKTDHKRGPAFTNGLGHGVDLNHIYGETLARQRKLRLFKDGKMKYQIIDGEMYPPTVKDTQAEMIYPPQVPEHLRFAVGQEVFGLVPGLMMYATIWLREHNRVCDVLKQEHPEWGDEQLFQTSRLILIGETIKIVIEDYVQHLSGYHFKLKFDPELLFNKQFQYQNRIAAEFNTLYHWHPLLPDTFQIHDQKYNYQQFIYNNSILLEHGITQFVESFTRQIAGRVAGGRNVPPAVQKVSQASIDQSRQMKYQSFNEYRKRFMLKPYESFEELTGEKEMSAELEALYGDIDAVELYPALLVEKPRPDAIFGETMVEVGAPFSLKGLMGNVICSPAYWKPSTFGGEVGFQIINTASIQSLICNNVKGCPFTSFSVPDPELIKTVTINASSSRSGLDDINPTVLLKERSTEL
# RUN_DESCRIPTION: In vitro COX-2 inhibition assay (colorimetric COX inhibitor screening kit, Cayman)
# Type: biochemical
# RUN_PARAMETERS: IC50 (COX-1)/IC50 (COX-2)
MEASURED_PROPERTY: SI (COX-1/ COX-2)
I only need the number, thanks.

Some compounds with known SI (COX-1/ COX-2) results, for comparison:
COMPOUND	SI (COX-1/ COX-2)
Cc1nn(-c2ccccc2)c(Cl)c1/C=C1\SC(N2CCCCC2)=NC1=O [Compound 1]	59
O=C1N=C(N2CCOCC2)S/C1=C\c1cn(-c2ccccc2)nc1-c1ccc(Br)cc1 [Compound 10]	103
O=C1N=C(N2CCOCC2)S/C1=C\c1cn(-c2ccccc2)nc1-c1ccccc1 [Compound 4]	80
Cc1ccc(-c2nn(-c3ccccc3)cc2/C=C2\SC(N3CCOCC3)=NC2=O)cc1 [Compound 6]	69
COc1ccc(-c2nn(-c3ccccc3)cc2/C=C2\SC(N3CCOCC3)=NC2=O)cc1 [Compound 8]	113

Attention now shifts to the item below.
SI (COX-1/ COX-2) recorded for this compound, O=C1N=C(N2CCCCC2)S/C1=C\c1cn(-c2ccccc2)nc1-c1ccc(Br)cc1 [Compound 9] , is 107
